B1: TPR 5TU (parent)
chain: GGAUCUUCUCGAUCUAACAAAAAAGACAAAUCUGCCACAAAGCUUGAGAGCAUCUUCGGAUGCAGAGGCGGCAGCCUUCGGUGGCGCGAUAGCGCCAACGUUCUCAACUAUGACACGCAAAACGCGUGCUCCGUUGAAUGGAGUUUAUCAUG

Variants of: B1
Experiment: polymerase ribozyme fitness, log enrichment relative to wild type (log ratio); higher = more active; in vitro selection for triplet polymerase activity
Variants at the floor of the assay were thinned out.
The label depends only on polymerase ribozyme fitness (log ratio): y if it is at least -2, n if it is smaller.

Mutation	Class Name
G58A C103U C118A C132A A138C	n

Is polymerase ribozyme fitness (log ratio) for A47C C85A C96U A97U at or above -2?
n

Tell me whether polymerase ribozyme fitness (log ratio) is at least -2 here: C5A U148G
n

# check: polymerase ribozyme fitness (log ratio) of G80A U146G U148C is greater than or equal to -2
n

Reported polymerase ribozyme fitness (log ratio) reaches at least -2 for A17G C93U ?
y

Decide: polymerase ribozyme fitness (log ratio) of C54A G59C G84A >= -2?
y

Is it the case that C51U C95G has polymerase ribozyme fitness (log ratio) reaching or exceeding -2?
y

Say whether A47G G84A G128C shows polymerase ribozyme fitness (log ratio) of -2 or more.
n

Reported polymerase ribozyme fitness (log ratio) reaches at least -2 for A17G A89G ?
y

Confirm if polymerase ribozyme fitness (log ratio) reported for the variant U7A A16U A20G G48A C57A G58U A64G C87A G92U G126A C129A A137C is -2 or above.
n

Decide: is the reported value of polymerase ribozyme fitness (log ratio) for A17G G84C equal to or greater than -2?
y

Dear colleague, could you confirm whether C93A C103G has polymerase ribozyme fitness (log ratio) at or above -2?
n
